Test: MRP1 drug-resistance reversers in H69AR cells – cell-based, doxorubicin co-treatment, pilot screen (AID 601)
Details: H69AR cells + 2 uM doxorubicin, CellTiter-Glo, 72 h; measured here: viability with 2 uM doxorubicin; at 10 µM; stronger effect = lower value
observation_type: viability

Known results for compounds:
Ask: Consider the compound CCN1CCN(C(c2cccs2)C(C)NC(=O)c2ccccc2)CC1 (stereo not drawn) . State its measured viability.
Reply: 81.3%

Ask: Consider the compound CCc1ccc(C2CC(c3cccc(OC)c3)n3nc(N)nc3N2)cc1 (stereo not drawn) . State its measured viability.
Reply: 97.5%

Continuing:
Ask: Consider the compound CC(=O)Nc1cccc(Oc2nc(C)cc(C)c2C#N)c1 . State its measured viability.
Reply: 91.7%

Ask: Consider the compound Cc1ccc(-c2noc(COc3ccccc3C)n2)cc1 . State its measured viability.
Reply: 86.3%

Ask: Consider the compound Cc1cc(=O)oc2c1c(C)nn2-c1ccc(C(=O)OC(C)C)cc1 . State its measured viability.
Reply: 94.5%

* * *

Assay: RAM signaling pathway blockade in yeast – S. cerevisiae, Pdr1DBD-CYC8 efflux-inhibited sensitized strain, primary screen (AID 1298);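 note: 0% = DMSO untreated cells without growth and 100% = 10 µM 1-NA-PP1 full growth; higher means more yeast growth rescued from 5-FOA killing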
Settings: S. cerevisiae cbk1-as DSE1-URA3 strain, 5-FOA growth OD615, 2 d; at 50 µM; stronger effect = higher value
observation_type: RAM network inhibition (%)
Field format: number, assumed %, no unit text.

Ask: Consider the compound O=C(Nc1nc2ccc(Cl)cc2s1)c1ccc(Br)o1 . State its measured RAM network inhibition.
Reply: 5.17

Ask: Consider the compound COc1ccc(N2CCN(C(=O)c3ccc4nc(N5CCCCC5)sc4c3)CC2)cc1 . State its measured RAM network inhibition.
Reply: 6.15

Ask: Consider the compound C=C(C)Cn1c(-c2ccccc2)nc2ccccc21 . State its measured RAM network inhibition.
Reply: 5.93

Ask: Consider the compound O=C(CCNS(=O)(=O)c1cccs1)Nc1ccccc1F . State its measured RAM network inhibition.
Reply: 2.55

Ask: Consider the compound COCCNC(=O)Cn1cc2c(n1)CCCCC2 . State its measured RAM network inhibition.
Reply: 5.21

Ask: Consider the compound COc1ccc(S(=O)(=O)N2CCN(c3ccc(C)cc3C)CC2)cc1OC . State its measured RAM network inhibition.
Reply: 1.74

Ask: Consider the compound CCOC(=O)c1ccc2ncc(C(=O)OCC)c(NCCCN3CCOCC3)c2c1 . State its measured RAM network inhibition.
Reply: 0.57

Ask: Consider the compound CCOc1ccc(NC(=O)CN2C(=O)C3CCCN3C2=O)cc1 (stereo not drawn) . State its measured RAM network inhibition.
Reply: 2.93

Ask: Consider the compound CCOC(=O)N1CCN(C(=O)c2ccc(CS(=O)(=O)c3ccc(OC)cc3)o2)CC1 . State its measured RAM network inhibition.
Reply: 4.85

Ask: Consider the compound O=C(NCc1ccccc1)C1CCN(S(=O)(=O)c2cccc3cccnc23)CC1 . State its measured RAM network inhibition.
Reply: -0.57

Continuing:
Ask: Consider the compound CN1CCN(C2=C(Cl)C(=O)N(c3cccc(Cl)c3)C2=O)CC1 . State its measured RAM network inhibition.
Reply: 2.62

Ask: Consider the compound Cc1cnc(NC(=O)CSc2nnc(COc3c(C)cccc3C)o2)s1 . State its measured RAM network inhibition.
Reply: 0.63

Ask: Consider the compound Cc1noc(C)c1S(=O)(=O)NC1CCN(Cc2ccccc2)CC1 . State its measured RAM network inhibition.
Reply: 4.49

Ask: Consider the compound CCSc1nnc(Cc2cc(=O)[nH]c(=O)[nH]2)n1-c1cccc(C)c1 . State its measured RAM network inhibition.
Reply: 0.26
